The values you see were collected from ChEMBL document CHEMBL1141179.

readout kind: pIC50
Conceptually, pIC50 converts a concentration in mol/L into minus its log10.

Given C[C@@H](O)[C@@H]1NC(=O)[C@H](Cc2ccccc2)NC(=O)[C@H]([C@@H](C)O)NC(=O)[C@H](CCCCN)NC(=O)[C@@H](Cc2c[nH]c3ccccc23)NC(=O)[C@H](Cc2ccccc2)NC(=O)[C@H](Cc2ccccc2)NC(=O)[C@@H](N)CSSC[C@@H](C(=O)O)NC1=O , report its pIC50 on Somatostatin receptor type 5 (Homo sapiens). 7.37

====

pIC50: −log10 of the molar value.
For each entry below, report its pIC50 value.

Given CC(C)NCc1ccc(C[C@@H]2NC(=O)[C@@H](Cc3c[nH]c4ccccc34)NC(=O)[C@H](Cc3ccccc3)NC(=O)[C@@H]3CCC(=O)NCCCC[C@H](NC(=O)[C@H]([C@@H](C)O)NC2=O)C(=O)N[C@@H]([C@@H](C)O)C(=O)N[C@@H](CO)C(=O)N[C@H](C(=O)O)CSSC[C@H](NC(=O)[C@@H](N)Cc2ccc(O)cc2)C(=O)N[C@@H](CCCCN)C(=O)N3)cc1 , report its pIC50 on Somatostatin receptor type 5 (Homo sapiens, UniProt P35346). < 6.00

Given CC(C)NCc1ccc(C[C@@H]2NC(=O)[C@@H](Cc3c[nH]c4ccccc34)NC(=O)[C@H](Cc3ccccc3)NC(=O)[C@@H]3CCC(=O)NCC[C@H](NC(=O)[C@H](Cc4ccccc4)NC(=O)[C@H]([C@@H](C)O)NC2=O)C(=O)N[C@@H](CO)C(=O)N[C@H](C(=O)O)CSSC[C@H](NC(=O)[C@@H](N)Cc2ccc(O)cc2)C(=O)N[C@@H](CCCCN)C(=O)N3)cc1 , report its pIC50 on Somatostatin receptor type 5 (Homo sapiens, UniProt P35346). < 6.00

Given CC(C)NCc1ccc(C[C@@H]2NC(=O)[C@@H](Cc3c[nH]c4ccccc34)NC(=O)[C@@H]3CCC(=O)NCCC(=O)NCCC[C@H](NC(=O)[C@H](Cc4ccccc4)NC(=O)[C@H]([C@@H](C)O)NC2=O)C(=O)N[C@@H](CO)C(=O)N[C@H](C(=O)O)CSSC[C@H](NC(=O)[C@@H](N)Cc2ccc(O)cc2)C(=O)N[C@@H](CCCCN)C(=O)N[C@@H](Cc2ccccc2)C(=O)N3)cc1 , report its pIC50 on Somatostatin receptor type 5 (Homo sapiens, UniProt P35346). < 6.00

====

For each entry below, report its IC50 value.

Given CC(C)NCc1ccc(C[C@@H]2NC(=O)[C@@H](Cc3c[nH]c4ccccc34)NC(=O)[C@@H]3CCC(=O)NCCCC(=O)NCCCC[C@H](NC(=O)[C@H](Cc4ccccc4)NC(=O)[C@H]([C@@H](C)O)NC2=O)C(=O)N[C@@H](CO)C(=O)N[C@H](C(=O)O)CSSC[C@H](NC(=O)[C@@H](N)Cc2ccc(O)cc2)C(=O)N[C@@H](CCCCN)C(=O)N[C@@H](Cc2ccccc2)C(=O)N3)cc1 , report its IC50 on Somatostatin receptor type 2 (Homo sapiens). > 1000 nM

Given CC(C)NCc1ccc(C[C@@H]2NC(=O)[C@@H](Cc3c[nH]c4ccccc34)NC(=O)[C@@H]3CCC(=O)NCCCC[C@H](NC(=O)[C@H](Cc4ccccc4)NC(=O)[C@H]([C@@H](C)O)NC2=O)C(=O)N[C@@H](CO)C(=O)N[C@H](C(=O)O)CSSC[C@H](NC(=O)[C@@H](N)Cc2ccc(O)c(I)c2)C(=O)N[C@@H](CCCCN)C(=O)N[C@@H](Cc2ccccc2)C(=O)N3)cc1 , report its IC50 on Somatostatin receptor type 2 (Homo sapiens). > 1000 nM

====

pIC50: −log10 of the molar value.
These molecules were tested on Somatostatin receptor type 2 (Homo sapiens, UniProt P30874); pIC50 is the recorded read-out.
Sequence (P30874 whole entry): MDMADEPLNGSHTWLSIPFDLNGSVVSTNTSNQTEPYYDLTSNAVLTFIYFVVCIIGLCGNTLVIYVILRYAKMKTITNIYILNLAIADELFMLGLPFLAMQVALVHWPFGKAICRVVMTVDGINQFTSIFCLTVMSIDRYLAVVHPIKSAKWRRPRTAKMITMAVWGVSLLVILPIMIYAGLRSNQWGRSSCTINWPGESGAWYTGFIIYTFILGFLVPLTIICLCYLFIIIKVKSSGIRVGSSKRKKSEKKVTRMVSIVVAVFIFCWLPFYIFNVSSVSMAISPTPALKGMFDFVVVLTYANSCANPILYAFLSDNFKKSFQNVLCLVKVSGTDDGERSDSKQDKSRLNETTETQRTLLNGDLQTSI

Using known records, supply pIC50 for CC(C)NCc1ccc(C[C@H]2C(=O)N[C@@H]([C@@H](C)O)C(=O)N[C@@H](Cc3ccc(O)c(I)c3)C(=O)N[C@H]3CCCCCCNC(=O)CC[C@H](NC(=O)[C@H](Cc4ccccc4)NC(=O)[C@H](CCCCN)NC(=O)[C@@H](N)CSSC[C@@H](C(=O)O)NC(=O)[C@H](CO)NC3=O)C(=O)N[C@H](Cc3c[nH]c4ccccc34)C(=O)N2C)cc1 < 6.00

Using known records, supply pIC50 for CC(C)NCc1ccc(C[C@@H]2NC(=O)[C@@H](Cc3c[nH]c4ccccc34)NC(=O)[C@H]3CCC(=O)NCC[C@H](NC(=O)[C@H]([C@@H](C)O)NC2=O)C(=O)N[C@@H]([C@@H](C)O)C(=O)N[C@@H](CO)C(=O)N[C@H](C(=O)O)CSSC[C@H](NC(=O)[C@@H](N)Cc2ccc(O)cc2)C(=O)N[C@@H](CCCCN)C(=O)N[C@@H](Cc2ccccc2)C(=O)N3)cc1 < 6.00

====

readout kind: IC50 (nM)
Return type: number; implicit unit nM.

Given CC(C)NCc1ccc(C[C@@H]2NC(=O)[C@@H](Cc3c[nH]c4ccccc34)NC(=O)[C@H](Cc3ccccc3)NC(=O)[C@@H]3CCC(=O)NCCCC[C@H](NC(=O)[C@H](Cc4ccccc4)NC(=O)[C@H]([C@@H](C)O)NC2=O)C(=O)N[C@@H](CO)C(=O)N[C@H](C(=O)O)CSSC[C@H](NC(=O)[C@@H](N)Cc2ccc(O)cc2)C(=O)N[C@@H](CCCCN)C(=O)N3)cc1 , report its IC50 on Somatostatin receptor type 1 (Homo sapiens, UniProt P30872). 208

Given CC(C)NCc1ccc(C[C@@H]2NC(=O)[C@@H](Cc3c[nH]c4ccccc34)NC(=O)[C@@H]3CCC(=O)NCCCC(=O)NCCC[C@H](NC(=O)[C@H](Cc4ccccc4)NC(=O)[C@H]([C@@H](C)O)NC2=O)C(=O)N[C@@H](CO)C(=O)N[C@H](C(=O)O)CSSC[C@H](NC(=O)[C@@H](N)Cc2ccc(O)cc2)C(=O)N[C@@H](CCCCN)C(=O)N[C@@H](Cc2ccccc2)C(=O)N3)cc1 , report its IC50 on Somatostatin receptor type 1 (Homo sapiens, UniProt P30872). 167

Given CC(C)NCc1ccc(C[C@@H]2NC(=O)[C@@H](Cc3c[nH]c4ccccc34)NC(=O)[C@@H]3CCC(=O)NCCCC[C@H](NC(=O)[C@H](Cc4ccc(O)cc4)NC(=O)[C@H]([C@@H](C)O)NC2=O)C(=O)N[C@@H](CO)C(=O)N[C@H](C(N)=O)CSSC[C@H](N)C(=O)N[C@@H](CCCCN)C(=O)N[C@@H](Cc2ccccc2)C(=O)N3)cc1 , report its IC50 on Somatostatin receptor type 1 (Homo sapiens, UniProt P30872). 18

Given CC(C)NCc1ccc(C[C@H]2C(=O)N[C@@H]([C@@H](C)O)C(=O)N[C@@H](Cc3ccc(O)c(I)c3)C(=O)N[C@H]3CCCCNC(=O)CC[C@H](NC(=O)[C@H](Cc4ccccc4)NC(=O)[C@H](CCCCN)NC(=O)[C@@H](N)CSSC[C@@H](C(=O)O)NC(=O)[C@H](CO)NC3=O)C(=O)N[C@H](Cc3c[nH]c4ccccc34)C(=O)N2C)cc1 , report its IC50 on Somatostatin receptor type 1 (Homo sapiens, UniProt P30872). 14

====

These compounds were tested on UniProt:P30872; IC50 is the recorded read-out.
Return type: number; implicit unit nM.

Using known records, supply IC50 for CC(C)NCc1ccc(C[C@@H]2NC(=O)C(Cc3c[nH]c4ccccc34)NC(=O)[C@H](Cc3ccccc3)NC(=O)[C@@H](Cc3ccccc3)NC(=O)[C@H](NC(=O)[C@@H](N)Cc3ccc(O)cc3)CSSC[C@@H](C(=O)O)NC(=O)[C@@H]([C@@H](C)O)NC(=O)[C@H](Cc3ccccc3)NC(=O)[C@@H]([C@@H](C)O)NC2=O)cc1 (stereo in doubt) 720

Using known records, supply IC50 for CC(C)NCc1ccc(C[C@@H]2NC(=O)[C@@H](Cc3c[nH]c4ccccc34)NC(=O)[C@@H]3CCC(=O)NCCCCCC[C@@H](NC(=O)[C@H](Cc4ccccc4)NC(=O)[C@H]([C@@H](C)O)NC2=O)C(=O)N[C@@H](CO)C(=O)N[C@H](C(=O)O)CSSC[C@H](NC(=O)[C@@H](N)Cc2ccc(O)cc2)C(=O)N[C@@H](CCCCN)C(=O)N[C@@H](Cc2ccccc2)C(=O)N3)cc1 204

Using known records, supply IC50 for CC(C)NCc1ccc(C[C@@H]2NC(=O)[C@@H](Cc3c[nH]c4ccccc34)NC(=O)[C@@H]3CCC(=O)NCCCCC[C@@H](NC(=O)[C@H](Cc4ccccc4)NC(=O)[C@H]([C@@H](C)O)NC2=O)C(=O)N[C@@H](CO)C(=O)N[C@H](C(=O)O)CSSC[C@H](NC(=O)[C@@H](N)Cc2ccc(O)cc2)C(=O)N[C@@H](CCCCN)C(=O)N[C@@H](Cc2ccccc2)C(=O)N3)cc1 782
